Experiment: chemical genetic growth profiling, strain panel (AID 1159580);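 further: tested at 20 µM; growth read once vehicle control cultures reached saturation at 30 °C; 1 = growth at the plate median or of vehicle wells; lower values mean less growth of the strain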
Conditions: S. cerevisiae deletion strains, growth OD, locus YDR502C, strain sam2, stronger effect = lower value
Hit rate of the full screen: of about 5,500 compounds, about 2,000 (36%) were called active. Another 18% or so got no clear call; they are omitted. The list shows a part of the results.
propertyMeasured: normalized growth

INSERT INTO results (compound, value) VALUES
  ('NC(=O)c1cc([N+](=O)[O-])cc([N+](=O)[O-])c1', 0.983),
  ('CC(=O)O[C@@H]1c2c(ccc3ccc(=O)oc23)OC(C)(C)[C@@H]1OC(=O)CC(C)C', 1),
  ('CC(=O)[C@@]1(O)CCC2C3C=C(Cl)C4=CC(=O)[C@@H]5CC5[C@]4(C)C3CC[C@@]21C (some centres undefined)', 1.01),
  ('CO[C@H]1[C@H](O)[C@@H](O[C@H]2CC[C@]3(C=O)C4CC[C@]5(C)[C@@H](C6=CC(=O)OC6)CC[C@]5(O)C4CC[C@@H]3C2)O[C@@H](C)[C@@H]1O (some centres undefined)', 0.992),
  ('CN(C)CC[C@H](c1ccc(Cl)cc1)c1ccccn1', 1.01),
  ('CCCCC(=O)O[C@]1(C(=O)CO)[C@@H](C)CC2C3CCC4=CC(=O)C=C[C@]4(C)[C@@]3(F)C(O)C[C@@]21C (some centres undefined)', 0.988),
  ('C[C@H]1OC(O[C@H]2[C@@H](O)CC(O[C@H]3[C@@H](O)C[C@H](O[C@H]4CC[C@]5(C)C6CC[C@]7(C)[C@@H](C8=CC(=O)OC8)[C@@H](O)C[C@]7(O)[C@@H]6CC[C@@H]5C4)O[C@@H]3C)O[C@@H]2C)C[C@H](O)C1O (some centres undefined)', 0.987),
  ('CSc1nc(NC(C)C)nc(NC(C)C)n1', 1.01),
  ('C[C@]12CC[C@H](O)C[C@H]1CCC1C2CC[C@]2(C)[C@@H](C3=CC(=O)OC3)[C@@H](O)C[C@]12O (some centres undefined)', 1.01),
  ('Cc1ccccc1N1C(=O)c2cc(S(N)(=O)=O)c(Cl)cc2NC1C (centres undefined)', 0.983),
  ('CC1(C)C(O)CC(=O)C2(C)C1CC(O)C1(C)C2CCC2(C)C(c3ccoc3)OC(=O)C3OC321 (centres undefined)', 1.02),
  ('C[C@@H](CO)NC(=O)C1C=C2c3cccc4[nH]cc(c34)C[C@H]2N(C)C1 (some centres undefined)', 0.996),
  ('C[C@@H]1CCC2[C@](C)(CO)[C@@H](O)CC[C@]2(C)[C@@]12CC[C@@](CO)(CCO)O2 (some centres undefined)', 1.01),
  ('CC12CCC3C(CCC4(O)CC(O)CCC34/C=N/NC(N)=O)C1(O)CCC2C1=CC(=O)OC1 (centres undefined)', 0.974),
  ('CC1(C)Oc2ccc3ccc(=O)oc3c2CC1O (centres undefined)', 0.994),
  ('COc1cccc2c1CCC1=CC(=O)CC[C@@]12C', 0.961),
  ('C/C=C(/C)C(=O)O[C@@H]1Cc2c(ccc3ccc(=O)oc23)OC1(C)C', 1.03),
  ('CC1(C)S[C@@H]2[C@H](NC(=O)C(C(=O)O)c3ccccc3)C(=O)N2[C@H]1C(=O)O (some centres undefined)', 0.995),
  ('CC1Cc2ccccc2N1NC(=O)c1ccc(Cl)c(S(N)(=O)=O)c1 (centres undefined)', 1),
  ('C[C@@H]1O[C@@H](O[C@H]2CC[C@]3(C=O)C4CC[C@]5(C)[C@@H](C6=CC(=O)OC6)CC[C@]5(O)C4CC[C@]3(O)C2)[C@H](O)[C@H](O)[C@H]1O (some centres undefined)', 0.982),
  ('CCC(=O)OCC(=O)C1(OC(=O)CC)C(C)CC2C3CCC4=CC(=O)C=CC4(C)C3(Cl)C(O)CC21C (centres undefined)', 0.994),
  ('COC1=CC(C)[C@@H]2C[C@H]3OC(=O)C[C@H]4C(C)=C(OC)C(=O)C([C@@]34C)[C@@]2(C)C1=O (some centres undefined)', 1.01),
  ('C[C@H]1O[C@@H](O[C@H]2[C@@H](O)C[C@H](O[C@H]3[C@@H](O)C[C@H](O[C@H]4CC[C@]5(C)C6C[C@@H](O)[C@]7(C)[C@@H](C8=CC(=O)OC8)CC[C@]7(O)C6CC[C@@H]5C4)O[C@@H]3C)O[C@@H]2C)C[C@H](O)[C@@H]1O (some centres undefined)', 1.01),
  ('COC(=O)C(N)CS (centres undefined)', 0.98),
  ('CC(=O)O[C@@H]1CC2C(C)(C)CCC[C@]2(C)C2CC[C@]3(C)C(=CC(=O)O[C@H]3c3ccoc3)[C@@]21C (some centres undefined)', 0.977),
  ('NC[C@@H]1O[C@H](O[C@@H]2[C@@H](CO)OC(O[C@@H]3[C@@H](O)[C@H](N)C[C@H](N)[C@H]3O[C@H]3O[C@H](CO)[C@@H](O)[C@H](O)[C@H]3N)[C@@H]2O)[C@H](N)[C@@H](O)[C@@H]1O (some centres undefined)', 0.988),
  ('COc1cc(C(=O)N2CCOCC2)cc(OC)c1OC', 0.111),
  ('CCC(=O)OCC(=O)[C@@]1(OC(=O)CC)[C@@H](C)CC2C3CCC4=CC(=O)C=C[C@]4(C)C3(F)[C@@H](O)C[C@@]21C (some centres undefined)', 0.926),
  ('CCc1ccc2c(O)c3c(cc2c1C(=O)OC)C(=O)c1c(O)ccc(O)c1C3=O', 0.974);

====

Experiment: chemical genetic growth profiling, strain panel (AID 1159580);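 further: tested at 20 µM; growth read once vehicle control cultures reached saturation at 30 °C; 1 = growth at the plate median or of vehicle wells; lower values mean less growth of the strain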
Details: S. cerevisiae deletion strains, growth OD, locus YDR335W, strain msn5, stronger effect = lower value
Out of some 5,500 compounds screened, about 2,000 (36%) were called active. Roughly 18% stayed inconclusive and do not appear here. Some of the results follow.
Measured normalized growth, listed per entry.
propertyMeasured: normalized growth

INSERT INTO results (compound, propertymeasured, value) VALUES
  ('O=C(O)C1=CC(=C(c2ccc(O)c(C(=O)O)c2)c2ccc(O)c(C(=O)O)c2)C=CC1=O', 'normalized growth', 0.965),
  ('CCC(=O)OCC(=O)C1(OC(=O)CC)C(C)CC2C3CCC4=CC(=O)C=CC4(C)C3(Cl)C(O)CC21C (configuration not stated)', 'normalized growth', 0.966),
  ('COC(=O)N/N=C\c1c[n+]([O-])c2ccccc2[n+]1[O-]', 'normalized growth', 0.983),
  ('CC(C)(C)NCC(O)COc1cccc2c1CCCC2=O (configuration not stated)', 'normalized growth', 0.989),
  ('CSc1nc(NC(C)C)nc(NC(C)C)n1', 'normalized growth', 0.969),
  ('O=C(CCCN1CCN(c2ccccn2)CC1)c1ccc(F)cc1', 'normalized growth', 0.948),
  ('COC(=O)CC1C(C)(C)C(OC(C)=O)[C@@H]2[C@@H](OC(C)=O)[C@]34O[C@@]2(O)[C@]1(C)C3CC[C@]1(C)C4=CC(=O)O[C@H]1c1ccoc1 (some centres not stated)', 'normalized growth', 1.01),
  ('COc1cc2c(cc1OC)-c1c(oc3cc(O)cc(O)c3c1=O)CO2', 'normalized growth', 1.03),
  ('OC1(c2ccc(Cl)c(C(F)(F)F)c2)CCN(CCCC(c2ccc(F)cc2)c2ccc(F)cc2)CC1', 'normalized growth', 0.0657),
  ('COc1ccc(-c2cc(=O)c3c(O)cc(O)c(-c4cc(-c5cc(=O)c6c(O)cc(O)cc6o5)ccc4OC)c3o2)cc1', 'normalized growth', 1.01),
  ('N#Cc1c(Cl)cccc1Cl', 'normalized growth', 0.977),
  ('NCC(O)CC(=O)O (configuration not stated)', 'normalized growth', 0.988),
  ('COc1nc(NC(C)C)nc(NC(C)C)n1', 'normalized growth', 1.01),
  ('CN(C)CC[C@H](c1ccc(Cl)cc1)c1ccccn1', 'normalized growth', 1),
  ('CO[C@@H]1[C@@H](OC(N)=O)[C@@H](O)[C@H](Oc2ccc3c(O)c(NC(=O)c4ccc(O)c(CC=C(C)C)c4)c(=O)oc3c2C)OC1(C)C', 'normalized growth', 1.06),
  ('CC[C@@]1(O)C(=O)OCc2c1cc1n(c2=O)Cc2cc3ccccc3nc2-1', 'normalized growth', 0.841),
  ('CCC(=O)OCC(=O)[C@@]1(OC(=O)CC)[C@@H](C)CC2C3CCC4=CC(=O)C=C[C@]4(C)C3(F)[C@@H](O)C[C@@]21C (some centres not stated)', 'normalized growth', 0.998);

====

Assay: chemical genetic growth profiling, strain panel (AID 1159580);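 further: tested at 20 µM; growth read once vehicle control cultures reached saturation at 30 °C; 1 = growth at the plate median or of vehicle wells; lower values mean less growth of the strain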
Details: S. cerevisiae deletion strains, growth OD, locus YEL061C, strain CIN8 (second series), stronger effect = lower value
About 2,000 (36%) of roughly 5,500 compounds were called active. Inconclusive results (about 18%) are left out. This is one part of the list.
propertyMeasured: normalized growth

INSERT INTO results (compound, value) VALUES
  ('O=C(Oc1cccc2cccnc12)c1ccccc1', 0.943),
  ('CC1(C)S[C@@H]2[C@H](NC(=O)C(C(=O)O)c3ccccc3)C(=O)N2[C@H]1C(=O)O (some centres undefined)', 0.989),
  ('CC(=O)O[C@@H]1c2c(ccc3ccc(=O)oc23)OC(C)(C)[C@@H]1OC(=O)CC(C)C', 1.01),
  ('COC(=O)NC(=S)Nc1ccccc1NC(=S)NC(=O)OC', 0.979);

Sourced from PubChem BioAssay AID1159580
